# subject of test: Phosphodiesterase 4 (Homo sapiens, UniProt P27815+Q08499+Q07343+Q08493)
# assay summary: Relative inhibition of PDE4 activity and rolipram binding
# Assay type: protein assay
One threshold, 0.6, splits the recorded Ratio values: lower ones are true (1), equal or higher ones are false (0).

>>> label("COc1ccc(C(=O)Nc2c(Cl)cncc2Cl)c2ccc(C(C)O)nc12 (stereo not given)")
"true (1)"
>>> label("CCc1cnc2c(OC)ccc(C(=O)Nc3c(Cl)cncc3Cl)c2c1")
"false (0)"
>>> label("CCc1ccc2c(C(=O)Nc3c(Cl)cncc3Cl)ccc(OC)c2n1")
"true (1)"
>>> label("COc1ccc(C(=O)Nc2c(Cl)cncc2Cl)c2ccc(C(F)(F)F)nc12")
"false (0)"
>>> label("CON=C(C)c1ccc2c(C(=O)Nc3c(Cl)cncc3Cl)ccc(OC)c2n1")
"false (0)"

---

In this section we review reported Ratio values for a set of compounds.
# subject of test: Phosphodiesterase 4 (Homo sapiens, UniProt P27815+Q08499+Q07343+Q08493)
# assay summary: Relative inhibition of PDE4 activity and rolipram binding
# Type: protein assay
endpoint label: Ratio

>>> result("COc1ccc(C(=O)Nc2c(Cl)cncc2Cl)c2ccc(C)nc12")
1.19
>>> result("COc1ccc(C(=O)Nc2c(Cl)cncc2Cl)c2ccc(C#N)nc12")
16.3
>>> result("COc1ccc(C(=O)Nc2c(Cl)cncc2Cl)c2ccc(C(C)=O)nc12")
0.29

---

In this section we review reported inhibition values for a set of molecules.
# subject of test: Phosphodiesterase 3 (Homo sapiens) (UniProt Q14432+Q13370)
# assay summary: Inhibition of human platelet Phosphodiesterase 3 at 20 uM
endpoint label: inhibition (%)

>>> result("COc1ccc(C(=O)Nc2c(Cl)cncc2Cl)c2ccc(C)nc12")
21
>>> result("COc1ccc(C(=O)Nc2c(Cl)cncc2Cl)c2ccc(C#N)nc12")
38
>>> result("COc1ccc(C(=O)Nc2c(Cl)cncc2Cl)c2cccnc12")
10
>>> result("CCc1ccc2c(C(=O)Nc3c(Cl)cncc3Cl)ccc(OC)c2n1")
35
>>> result("COc1ccc(C(=O)Nc2c(Cl)cncc2Cl)c2ccc(C(C)=O)nc12")
27
>>> result("CCc1cnc2c(OC)ccc(C(=O)Nc3c(Cl)cncc3Cl)c2c1")
12
>>> result("COc1ccc(C(=O)Nc2c(Cl)cncc2Cl)c2ccc(C(F)(F)F)nc12")
15
>>> result("CON=C(C)c1ccc2c(C(=O)Nc3c(Cl)cncc3Cl)ccc(OC)c2n1")
22
>>> result("COc1ccc(C(=O)Nc2c(Cl)cncc2Cl)c2ccc(C(C)O)nc12 (centres undefined)")
30

---

# subject of test: Phosphodiesterase 4 (Rattus norvegicus, UniProt P14270+P14646+P14644+P54748)
# assay summary: Inhibition of rolipram binding to PDE4 in rat brain
# Format: tissue-based
One threshold, 200 nM, splits the recorded IC50 values: lower ones are Satisfied, equal or higher ones are Not satisfied.

>>> label("COc1ccc(C(=O)Nc2c(Cl)cncc2Cl)c2ccc(C(F)(F)F)nc12")
"Satisfied"
>>> label("COc1ccc(C(=O)Nc2c(Cl)cncc2Cl)c2ccc(C(C)=O)nc12")
"Not satisfied"
>>> label("CCc1cnc2c(OC)ccc(C(=O)Nc3c(Cl)cncc3Cl)c2c1")
"Satisfied"
>>> label("COc1ccc(C(=O)Nc2c(Cl)cncc2Cl)c2ccc(C)nc12")
"Satisfied"
>>> label("CON=C(C)c1ccc2c(C(=O)Nc3c(Cl)cncc3Cl)ccc(OC)c2n1")
"Satisfied"
>>> label("COc1ccc(C(=O)Nc2c(Cl)cncc2Cl)c2ccc(C(C)O)nc12 (stereo not drawn)")
"Not satisfied"
>>> label("CCc1ccc2c(C(=O)Nc3c(Cl)cncc3Cl)ccc(OC)c2n1")
"Satisfied"
>>> label("COc1ccc(C(=O)Nc2c(Cl)cncc2Cl)c2ccc(C#N)nc12")
"Satisfied"

---

# subject of test: Phosphodiesterase 4 (Homo sapiens, UniProt P27815+Q08499+Q07343+Q08493)
# assay summary: Inhibition of Phosphodiesterase 4 from human U937 cells
# Type: cell-based
# run conditions: u-937
In this section we review reported IC50 values for a set of compounds.
endpoint label: IC50 (nM)

>>> result("CON=C(C)c1ccc2c(C(=O)Nc3c(Cl)cncc3Cl)ccc(OC)c2n1")
210
>>> result("CCc1cnc2c(OC)ccc(C(=O)Nc3c(Cl)cncc3Cl)c2c1")
210
>>> result("COc1ccc(C(=O)Nc2c(Cl)cncc2Cl)c2ccc(C(F)(F)F)nc12")
51
>>> result("COc1ccc(C(=O)Nc2c(Cl)cncc2Cl)c2ccc(C#N)nc12")
700
>>> result("CCc1ccc2c(C(=O)Nc3c(Cl)cncc3Cl)ccc(OC)c2n1")
43
>>> result("COc1ccc(C(=O)Nc2c(Cl)cncc2Cl)c2ccc(C)nc12")
88
>>> result("COc1ccc(C(=O)Nc2c(Cl)cncc2Cl)c2ccc(C(C)=O)nc12")
440
>>> result("COc1ccc(C(=O)Nc2c(Cl)cncc2Cl)c2ccc(C(C)O)nc12 (stereo not drawn)")
180

Data origin, for the record: ChEMBL document CHEMBL1135147
